meta.source: patent US20060264460A1

Attribute: pIC50
assayed_target: human Cot/Tpl2 kinase (Homo sapiens, UniProt P41279)
Construct: human Cot/Tpl2 kinase construct encoding residues 30-398; 6His (N); made in house; host or cells: Sf9 insect cells, baculovirus system (BD Biosciences)
Sequence (P41279 30-398): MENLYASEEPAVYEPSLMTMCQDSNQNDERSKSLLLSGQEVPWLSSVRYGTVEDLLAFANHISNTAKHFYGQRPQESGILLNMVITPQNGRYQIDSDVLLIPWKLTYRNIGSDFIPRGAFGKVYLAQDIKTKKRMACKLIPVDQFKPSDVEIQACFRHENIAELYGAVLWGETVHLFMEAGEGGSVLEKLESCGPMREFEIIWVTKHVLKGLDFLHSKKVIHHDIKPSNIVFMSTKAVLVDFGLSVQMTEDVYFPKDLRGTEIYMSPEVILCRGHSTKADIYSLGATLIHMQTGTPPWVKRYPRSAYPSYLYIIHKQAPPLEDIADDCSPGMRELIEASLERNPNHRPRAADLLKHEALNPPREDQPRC
experimental_details: Tpl2/Cot kinase assay: GST-MEK1 phosphorylation detected by ELISA (DELFIA Eu)
Type: biochemical
measurement_conditions: Table 2; Tpl2/Cot kinase, GST-MEK1 substrate, 50 uM ATP
pIC50: −log10 of the molar value.

Past entries and their recorded results:
N#Cc1cnc2c(Cl)cc(NC3CCCC3Cl)cc2c1Nc1ccc(F)c(Cl)c1 (centres unmarked) [Example 628] = < 5.52
N#Cc1cncc(-c2ccccc2NCc2cnc[nH]2)c1Nc1ccc(F)c(Cl)c1 [Example 534] = < 5.52
CCN1CCC(Nc2ccc3ncc(C#N)c(Nc4ccc(F)c(Cl)c4)c3c2)C(C)C1 (centres unmarked) [Example 377] = < 4.40
CC(C)(C)OC(=O)N1CCC(Nc2ccc3ncc(C#N)c(Nc4ccc(F)c(Cl)c4)c3c2)CC1 [Example 379] = < 4.40

Next, consider the following molecule.
Qu. # get_value(readout='pIC50', item= CC(C)(C)OC(=O)N1CCC[C@H]1CNc1cc(Cl)c2ncc(C#N)c(Nc3ccc(F)c(Cl)c3)c2c1 [Example 618] )
Ans. < 5.52

###

assayed_target: human Cot/Tpl2 kinase (Homo sapiens, UniProt P41279)
Construct: human Cot/Tpl2 kinase construct encoding residues 30-398; 6His (N); made in house; host or cells: Sf9 insect cells, baculovirus system (BD Biosciences)
experimental_details: Tpl2/Cot kinase assay: GST-MEK1 phosphorylation detected by ELISA (DELFIA Eu)
Format: biochemical
measurement_conditions: Table 2; Tpl2/Cot kinase, GST-MEK1 substrate, 50 uM ATP
Method: Sf9 cells expressing the kinase were lysed in 50 mM NaPhosphate pH=8; 300 mM NaCl; 5 mM imidazole; 0.1 mM EGTA; 25 mM beta-glycerophosphate; 1% TX-100, 1% glycerol; 6 mM beta-mercaptoethanol and protease inhibitors. […] Tpl2/Cot activity was directly assayed using GST-MEK1 as a substrate. GST-MEK1 phosphorylation on serine residues 217 and 221 was detected by ELISA. […] After a final wash, Eu detection solution was added to each well and the Eu signal was measured in a Wallac Victor^2 Multilabel Counter. […]
measurement_name: IC50 (nM)

Cn1cnc(CNc2cc(Cl)c3ncc(C#N)c(Nc4ccc(F)c(Cl)c4)c3c2)n1 = 530
CC(C)(C)OC(=O)N1CCCN(CCCn2cc(CNc3cc(Br)c4ncc(C#N)c(Nc5ccc(F)c(Cl)c5)c4c3)nn2)CC1 = 520
